- SYSTEM UNDER TEST: TvaCA2 (Trichomonas vaginalis)
- Construct: gene TVAG_268150; recombinant in E. coli BL21 Star (DE3), pBVboostFG; 6xHis-tag removed by thrombin; 185 residues; homodimer, zinc
- ASSAY NOTES: stopped-flow CO2 hydration, phenol red
- Type: biochemical
- TEST SETTINGS: read-out: TvaCA2 β
pKi: −log10 of the molar value.
QUANTITY KIND: pKi

[
  {
    "COMPOUND": "CC(=O)N=c1sc(S(N)(=O)=O)nn1C [MZA, methazolamide]",
    "QUANTITY KIND": "pKi",
    "RESULT QUALIFIER": "=",
    "RECORDED VALUE": 6.41
  },
  {
    "COMPOUND": "NS(=O)(=O)c1nnc(NS(=O)(=O)c2ccccc2)s1 [BZA]",
    "QUANTITY KIND": "pKi",
    "RESULT QUALIFIER": "=",
    "RECORDED VALUE": 5.38
  },
  {
    "COMPOUND": "NS(=O)(=O)Cc1noc2ccccc12 [ZNS, zonisamide]",
    "QUANTITY KIND": "pKi",
    "RESULT QUALIFIER": "<",
    "RECORDED VALUE": 5.00
  },
  {
    "COMPOUND": "CCN[C@H]1CN(CCCOC)S(=O)(=O)c2sc(S(N)(=O)=O)cc21 [BRZ]",
    "QUANTITY KIND": "pKi",
    "RESULT QUALIFIER": "=",
    "RECORDED VALUE": 5.49
  },
  {
    "COMPOUND": "NS(=O)(=O)c1cc2c(cc1Cl)NCNS2(=O)=O [HCT]",
    "QUANTITY KIND": "pKi",
    "RESULT QUALIFIER": "=",
    "RECORDED VALUE": 5.51
  },
  {
    "COMPOUND": "CC1(C)O[C@@H]2[C@@H](CO[C@@]3(COS(N)(=O)=O)OC(C)(C)O[C@@H]23)O1 [TPM, topiramate]",
    "QUANTITY KIND": "pKi",
    "RESULT QUALIFIER": "<",
    "RECORDED VALUE": 5.00
  },
  {
    "COMPOUND": "NS(=O)(=O)c1ccc(S(=O)(=O)Nc2cccc3c(Cl)c[nH]c23)cc1 [IND, indisulam]",
    "QUANTITY KIND": "pKi",
    "RESULT QUALIFIER": "<",
    "RECORDED VALUE": 5.00
  },
  {
    "COMPOUND": "Nc1ccc(S(N)(=O)=O)cc1Br [compound 9, 3-bromo-4-amino-benzenesulfonamide]",
    "QUANTITY KIND": "pKi",
    "RESULT QUALIFIER": "<",
    "RECORDED VALUE": 5.00
  }
]

====

- SYSTEM UNDER TEST: TvaCA2 (Trichomonas vaginalis, UniProt A2DLG4)
- Construct: gene TVAG_268150; recombinant in E. coli BL21 Star (DE3), pBVboostFG; 6xHis-tag removed by thrombin; 185 residues; homodimer, zinc
- Sequence (A2DLG4 1-184): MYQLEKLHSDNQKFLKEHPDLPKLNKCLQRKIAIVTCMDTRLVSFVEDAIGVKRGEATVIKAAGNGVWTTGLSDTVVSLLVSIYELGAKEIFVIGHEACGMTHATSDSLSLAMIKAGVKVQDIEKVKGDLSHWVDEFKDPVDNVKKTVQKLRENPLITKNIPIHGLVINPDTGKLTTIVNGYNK
- ASSAY NOTES: stopped-flow CO2 hydration, phenol red
- Format: biochemical
- TEST SETTINGS: read-out: TvaCA2 β
pKi: −log10 of the molar value.

[
  {
    "COMPOUND": "NS(=O)(=O)c1ccc(N2CCCCS2(=O)=O)cc1 [SLT, sulthiame]",
    "SYSTEM UNDER TEST": "TvaCA2 (Trichomonas vaginalis, UniProt A2DLG4)",
    "RESULT QUALIFIER": "<",
    "pKi": 5.00
  },
  {
    "COMPOUND": "Nc1cc(Cl)c(S(N)(=O)=O)cc1S(N)(=O)=O [compound 12]",
    "SYSTEM UNDER TEST": "TvaCA2 (Trichomonas vaginalis, UniProt A2DLG4)",
    "RESULT QUALIFIER": "=",
    "pKi": 6.42
  },
  {
    "COMPOUND": "Nc1cc(C(F)(F)F)c(S(N)(=O)=O)cc1S(N)(=O)=O [compound 11]",
    "SYSTEM UNDER TEST": "TvaCA2 (Trichomonas vaginalis, UniProt A2DLG4)",
    "RESULT QUALIFIER": "=",
    "pKi": 6.36
  },
  {
    "COMPOUND": "Cc1onc(-c2ccccc2)c1-c1ccc(S(N)(=O)=O)cc1 [VLX, valdecoxib]",
    "SYSTEM UNDER TEST": "TvaCA2 (Trichomonas vaginalis, UniProt A2DLG4)",
    "RESULT QUALIFIER": "<",
    "pKi": 5.00
  },
  {
    "COMPOUND": "Cc1ccc(-c2cc(C(F)(F)F)nn2-c2ccc(S(N)(=O)=O)cc2)cc1 [CLX, celecoxib]",
    "SYSTEM UNDER TEST": "TvaCA2 (Trichomonas vaginalis, UniProt A2DLG4)",
    "RESULT QUALIFIER": "<",
    "pKi": 5.00
  },
  {
    "COMPOUND": "Nc1nnc(S(N)(=O)=O)s1 [compound 13, 5-amino-1,3,4-thiadizole-2-sulfonamide]",
    "SYSTEM UNDER TEST": "TvaCA2 (Trichomonas vaginalis, UniProt A2DLG4)",
    "RESULT QUALIFIER": "=",
    "pKi": 5.94
  },
  {
    "COMPOUND": "NS(=O)(=O)c1cccc(S(N)(=O)=O)c1 [compound 3, 1,3-disulfamoyl benzene]",
    "SYSTEM UNDER TEST": "TvaCA2 (Trichomonas vaginalis, UniProt A2DLG4)",
    "RESULT QUALIFIER": "=",
    "pKi": 6.35
  },
  {
    "COMPOUND": "O=C1NS(=O)(=O)c2ccccc21 [SAC, saccharin]",
    "SYSTEM UNDER TEST": "TvaCA2 (Trichomonas vaginalis, UniProt A2DLG4)",
    "RESULT QUALIFIER": "<",
    "pKi": 5.00
  },
  {
    "COMPOUND": "CCN1CCCC1CNC(=O)c1cc(S(N)(=O)=O)ccc1OC (stereo not drawn) [SLP, sulpride]",
    "SYSTEM UNDER TEST": "TvaCA2 (Trichomonas vaginalis, UniProt A2DLG4)",
    "RESULT QUALIFIER": "<",
    "pKi": 5.00
  }
]
